measurement_description: Cytotoxicity in C8166 cells by MTT method
assay_context: human
readout_type: CC50 at 3 days (µM)

compound: CCc1c(CC2CCCCC2)nc(SCc2cc(-c3ccc(C)cc3)[nH]n2)[nH]c1=O
limit_qualifier: =
reported_result: 91.4

compound: CCc1c(CC2CCCCC2)nc(SCc2cc(-c3cccc(C)c3)[nH]n2)[nH]c1=O
limit_qualifier: =
reported_result: 82.8

compound: CCc1c(CC2CCCCC2)nc(SCc2n[nH]c(-c3ccc(Cl)c(Cl)c3)c2Cl)[nH]c1=O
limit_qualifier: =
reported_result: 190

compound: O=c1cc(CC2CCCCC2)nc(SCc2cc(-c3ccccc3)[nH]n2)[nH]1
limit_qualifier: =
reported_result: 79.1

compound: Cc1cc(C#N)cc(C)c1Oc1nc(Nc2ccc(C#N)cc2)nc(N)c1Br [ETR, etravirine, reference compound]
limit_qualifier: =
reported_result: 27.5

compound: Cc1cn([C@H]2C[C@H](N=[N+]=[N-])[C@@H](CO)O2)c(=O)[nH]c1=O [AZT, zidovudine, reference compound]
limit_qualifier: >
reported_result: 200
